- System: acetic acid ulcers in rats
- assay-explanation: Anti-ulcerous effect on acetic acid-induced experimental gastric ulcers in rats (oral for 13 days from the day after ulceration), Table I
- Format: in vivo, Donryu-strain male rats
- conditions-used: 200 mg/kg/day, relative to glutamine
Peptide text beside a SMILES is read from it. * marks the point of attachment. Bz = O=C(c1ccccc1)*
parameter: Relative therapeutic effect

For acetic acid ulcers in rats, provide Relative therapeutic effect of COc1ccc(C(=O)N[C@H](CO)Cc2ccc(O)cc2)cc1 please.
1.76

For acetic acid ulcers in rats, provide Relative therapeutic effect of O=C(N[C@@H](Cc1ccccc1)C(=O)N[C@@H](Cc1ccc(O)cc1)C(=O)O)c1ccccc1 [Compound (II) R3 =H, N-benzoylphenylalanyltyrosine] (Bz-Phe-Tyr-OH) please.
1.19

For acetic acid ulcers in rats, provide Relative therapeutic effect of O=C(N[C@H](CO)Cc1ccc(O)cc1)OCc1ccc(Cl)cc1 please.
0.81

For acetic acid ulcers in rats, provide Relative therapeutic effect of O=C(N[C@H](CO)Cc1ccc(O)cc1)OCC1CCCCC1 please.
1.60

For acetic acid ulcers in rats, provide Relative therapeutic effect of COc1ccccc1C(=O)N[C@H](CO)Cc1ccc(O)cc1 please.
1.29

For acetic acid ulcers in rats, provide Relative therapeutic effect of COc1cc(C(=O)N[C@H](CO)Cc2ccc(O)cc2)cc(OC)c1OC please.
1.43

For acetic acid ulcers in rats, provide Relative therapeutic effect of N[C@@H](Cc1ccc(O)cc1)C(=O)O please.
0.37

For acetic acid ulcers in rats, provide Relative therapeutic effect of Nc1ccc(C(=O)N[C@H](CO)Cc2ccc(O)cc2)cc1 please.
1.24

For acetic acid ulcers in rats, provide Relative therapeutic effect of CC(C)=CCCC(C)=CCCC(C)=CCCC(=O)OC/C=C(\C)CCC=C(C)C [Gefarnate, geranyl farnesylacetate, reference compound] please.
1.06

For acetic acid ulcers in rats, provide Relative therapeutic effect of Cc1ccc(COC(=O)N[C@H](CO)Cc2ccc(O)cc2)cc1 please.
1.81

For acetic acid ulcers in rats, provide Relative therapeutic effect of COc1ccc(C[C@@H](CO)NC(=O)OCc2ccc(OC)c(OC)c2)cc1 please.
0.98

For acetic acid ulcers in rats, provide Relative therapeutic effect of COc1ccc(COC(=O)N[C@H](CO)Cc2ccc(O)cc2)cc1 [drawing 11] please.
1.75

For acetic acid ulcers in rats, provide Relative therapeutic effect of NC(=O)CC[C@H](N)C(=O)O [Glutamine, glutamine, reference compound] please.
0.30

For acetic acid ulcers in rats, provide Relative therapeutic effect of O=C(N[C@H](CO)Cc1ccc(O)cc1)OCc1ccc(F)cc1 please.
1.14

For acetic acid ulcers in rats, provide Relative therapeutic effect of COc1ccc(C[C@@H](CO)NC(=O)OCc2ccccc2)cc1 please.
1.03

Taken from patent US4025644A.
